Measured values drawn from the supplement of paper PMC10567573 for this set.

B1: SOAT2 (parent)
chain: SLGKQKVFIIRKSLLDELMEVQHF

Variants of: B1
measurement-notes: protein stability index of a GFP-peptide fusion (GPS, HEK-293T) (PSI 1-6); higher = more stable;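 also: lentivirally expressed fusions sorted by FACS into six bins by GFP to DsRed ratio, PSI derived from sequencing read proportions per bin multiplied by bin number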
recorded-conditions: c terminus: a fixed tail appended
Rule: protein stability index under 2 gives FALSE, otherwise TRUE.

Given the entry "L18Y" , answer whether its protein stability index meets or surpasses 2.
TRUE

How about "R11H" ?
TRUE

Now consider "V21D" .
FALSE

Also "H23F" , if possible.
FALSE

Now the variant "S13G"
FALSE

Another variant to look at: "E17Q"
TRUE

Proceed to "K6Y"
TRUE
